B1: EHMT1 (parent)
chain: FHKDCASRVNNASYCPHCGEESSK

Variants of: B1
assay_protocol: protein stability index of a GFP-peptide fusion (GPS, HEK-293T) (PSI 1-6); higher = more stable;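 note: lentivirally expressed fusions sorted by FACS into six bins by GFP to DsRed ratio, PSI derived from sequencing read proportions per bin multiplied by bin number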
condition_info: c terminus: a fixed tail appended
readout: protein stability index
The response must contain the number and no unit.

### Prompt So what's the measured protein stability index for this one? FTKDCASRVNNASYCPHCGEESSK
### Response 3

### Prompt So what's the measured protein stability index for this one? FHKDCASRPNNASYCPHCGEESSK
### Response 3.84

### Prompt So what's the measured protein stability index for this one? FHKDCASRVNNASDCPHCGEESSK
### Response 3.77

### Prompt So what's the measured protein stability index for this one? FHKDCASRVNNAHYCPHCGEESSK
### Response 3.66

### Prompt So what's the measured protein stability index for this one? FHKDCAPRVNNASYCPHCGEESSK
### Response 2.87

### Prompt So what's the measured protein stability index for this one? IHKDCASRVNNASYCPHCGEESSK
### Response 4.55

### Prompt So what's the measured protein stability index for this one? SHKDCASRVNNASYCPHCGEESSK
### Response 4.77

### Prompt So what's the measured protein stability index for this one? FHKDCASRVNNASYCPHCGEESYK
### Response 3.6

### Prompt So what's the measured protein stability index for this one? FHKDCASRVNNASYCWHCGEESSK
### Response 1.66

### Prompt So what's the measured protein stability index for this one? FHKDSASRVNNASYCPHCGEESSK
### Response 2.56

### Prompt So what's the measured protein stability index for this one? FHKDCNSRVNNASYCPHCGEESSK
### Response 3.41

### Prompt So what's the measured protein stability index for this one? FHKDCASRVNNASYCEHCGEESSK
### Response 3.94

### Prompt So what's the measured protein stability index for this one? FHKDCASRVNNASYCPHCGEEYSK
### Response 3.36

### Prompt So what's the measured protein stability index for this one? FHKDCASRVNNASYCPCCGEESSK
### Response 3.45

### Prompt So what's the measured protein stability index for this one? FHKDCAERVNNASYCPHCGEESSK
### Response 3.54

### Prompt So what's the measured protein stability index for this one? FHKDCASRVNNASYCPHCGEEPSK
### Response 3.03

### Prompt So what's the measured protein stability index for this one? FIKDCASRVNNASYCPHCGEESSK
### Response 2.08

### Prompt So what's the measured protein stability index for this one? FHKDLASRVNNASYCPHCGEESSK
### Response 2.4

### Prompt So what's the measured protein stability index for this one? FHKDCASRVNNASYPPHCGEESSK
### Response 3.75

### Prompt So what's the measured protein stability index for this one? FHKDCCSRVNNASYCPHCGEESSK
### Response 4.35

### Prompt So what's the measured protein stability index for this one? FHKDCASRVNNASYCPHCGEYSSK
### Response 2.63

### Prompt So what's the measured protein stability index for this one? FHKDCASRVNNASYCPHCGEEASK
### Response 3.46

### Prompt So what's the measured protein stability index for this one? FHKDCANRVNNASYCPHCGEESSK
### Response 2.83

### Prompt So what's the measured protein stability index for this one? FHKDCASRVNNASYCPHCGEWSSK
### Response 2.8

### Prompt So what's the measured protein stability index for this one? LHKDCASRVNNASYCPHCGEESSK
### Response 4.78

### Prompt So what's the measured protein stability index for this one? FHKDCASRVQNASYCPHCGEESSK
### Response 3.52

### Prompt So what's the measured protein stability index for this one? FHKDCALRVNNASYCPHCGEESSK
### Response 3.44

### Prompt So what's the measured protein stability index for this one? FHKDHASRVNNASYCPHCGEESSK
### Response 2.3

### Prompt So what's the measured protein stability index for this one? FHKCCASRVNNASYCPHCGEESSK
### Response 4.12

### Prompt So what's the measured protein stability index for this one? FHKDCASRVNNASYCPHVGEESSK
### Response 3.75

### Prompt So what's the measured protein stability index for this one? FHKDCASRVNNASYCPHCGETSSK
### Response 3.4

### Prompt So what's the measured protein stability index for this one? FHKDCASRVNNASECPHCGEESSK
### Response 4.05

### Prompt So what's the measured protein stability index for this one? FHKDVASRVNNASYCPHCGEESSK
### Response 2.59

### Prompt So what's the measured protein stability index for this one? FHKNCASRVNNASYCPHCGEESSK
### Response 3.3

### Prompt So what's the measured protein stability index for this one? FHKDCASRVNNASGCPHCGEESSK
### Response 3.38

### Prompt So what's the measured protein stability index for this one? FHKDCASRVNNASYCPSCGEESSK
### Response 3.4

### Prompt So what's the measured protein stability index for this one? FHKMCASRVNNASYCPHCGEESSK
### Response 1.83

### Prompt So what's the measured protein stability index for this one? FHKTCASRVNNASYCPHCGEESSK
### Response 2.47

### Prompt So what's the measured protein stability index for this one? FHKDCQSRVNNASYCPHCGEESSK
### Response 4.04

### Prompt So what's the measured protein stability index for this one? FHKDCASRVNNACYCPHCGEESSK
### Response 2.37

### Prompt So what's the measured protein stability index for this one? FHKDCASRVNNASYCPMCGEESSK
### Response 3.14

### Prompt So what's the measured protein stability index for this one? FHKDCASRVNNKSYCPHCGEESSK
### Response 3.36

### Prompt So what's the measured protein stability index for this one? FHKDCASRVNNASYCRHCGEESSK
### Response 2.96

### Prompt So what's the measured protein stability index for this one? FHKDCASSVNNASYCPHCGEESSK
### Response 3.49

### Prompt So what's the measured protein stability index for this one? FHKDCASRVNNASYYPHCGEESSK
### Response 2.74

### Prompt So what's the measured protein stability index for this one? NHKDCASRVNNASYCPHCGEESSK
### Response 4.87
